- TESTED SYSTEM: T1, Human SR-A1 (MSR) (human, UniProt P21757 77-451)
- T1 construct: Bought protein; also called Macrophage scavenger receptor types I and II
- T1 sequence (looked up): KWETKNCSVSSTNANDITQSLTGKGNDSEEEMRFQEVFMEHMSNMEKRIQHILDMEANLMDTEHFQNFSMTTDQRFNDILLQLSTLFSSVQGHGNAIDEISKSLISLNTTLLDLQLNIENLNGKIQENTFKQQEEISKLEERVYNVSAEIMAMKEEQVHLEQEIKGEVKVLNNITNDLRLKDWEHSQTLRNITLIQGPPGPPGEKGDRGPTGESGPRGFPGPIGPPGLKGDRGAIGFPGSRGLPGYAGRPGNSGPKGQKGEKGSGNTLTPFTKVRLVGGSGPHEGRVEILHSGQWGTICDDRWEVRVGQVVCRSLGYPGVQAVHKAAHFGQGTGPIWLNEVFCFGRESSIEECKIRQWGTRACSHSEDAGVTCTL
- ASSAY SUMMARY: IgG binding ELISA on coated antigen, absorbance at 450 nm;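 further: specificity panel of related human receptors, coated alongside human LOX1 as the binding positive control, with an isotype human IgG1-TM antibody setting the nonspecific background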
OBSERVED PROPERTY: binding result

LX6960073_gl IgG1-TM (antibody, V domains shown, Whole human IgG1-TM, germlined) VH: EVQLVESGGGLVQPGRSLRLSCAASGFTSDDYAMHWVRQAPGKGLEWVSGISWNSGSIGYADSVKGRFTISRDNAKNSLYLQMNGLRAEDTAVYYCAREGSWNYDALDIWGQGTMVTVSS VL: QSALTQPASVSGSPGQPITISCTGTSSDVGGYNYVSWYQQHPGKAPKLMIYDVSKRPSGVSNRFSGSKSGNTASLTISGLQAEDEADYYCMGGMGRSTNWVFGGGTKLTVL = no binding
LX6960073_G82bS_gl IgG1-TM (antibody, V domains shown, Whole human IgG1-TM, germlined, with heavy chain G82bS (Kabat); also called LOX10696_73) VH: EVQLVESGGGLVQPGRSLRLSCAASGFTSDDYAMHWVRQAPGKGLEWVSGISWNSGSIGYADSVKGRFTISRDNAKNSLYLQMNSLRAEDTAVYYCAREGSWNYDALDIWGQGTMVTVSS VL: QSALTQPASVSGSPGQPITISCTGTSSDVGGYNYVSWYQQHPGKAPKLMIYDVSKRPSGVSNRFSGSKSGNTASLTISGLQAEDEADYYCMGGMGRSTNWVFGGGTKLTVL = no binding
LX5140108 IgG1-TM (antibody, V domains shown, Whole human IgG1-TM (L234F/L235E/P331S)) VH: QVQLVQSGAEVKKPGASVKVSCKVSGYTLTELSMHWVRQAPGKGLEWMGGFDPEDWSNHVSQKFQGRVTMTEDTSTDTAYMELSSLRSEDTAVYYCLTSTGRQGKGVRGWDYYYGMDVWGQGTTVTVSS VL: QSVVTQPPSVSGAPGQRVTISCTGSSSNIGAGYDVHWYQQLPGTAPKLLIYGNSNRPSGVPDRFSGSKSGTSASLAITGLQAEDEADYYCQSYDSSLSGWVFGGGTKLTVL = no binding

Cited source: patent US20210347900A1
